Provenance of the data: PubChem BioAssay AID1996

details: buffer; pH 7.4; 200.0 µM
Reported endpoint: solubility kinetic

Molecule: Cc1cccc(C)c1NC(=O)[C@@]1(CC(=O)O)CC(/C=C/c2ccccc2)=NO1
solubility kinetic: > 56.8 µg/mL

Molecule: O=C(COC(=O)CCC(=O)c1cccs1)NCc1cccs1
solubility kinetic: > 50.6 µg/mL

Molecule: Cc1nc(S/C(C(=O)O)=C2/C(=O)Nc3ccccc32)n[nH]1
solubility kinetic: > 45.3 µg/mL

Molecule: COc1ccc(/C=C/C(=O)Nc2c(C(=O)O)[nH]c3ccccc23)cc1OC
solubility kinetic: > 55 µg/mL

Molecule: COc1ccc(Nc2c3c(nc4ccccc24)CCC3)c(OC)c1
solubility kinetic: > 48.1 µg/mL

Molecule: COc1ccc(Oc2nc3c(c(=O)n(C)c(=O)n3C)n2C)cc1
solubility kinetic: > 47.4 µg/mL

Molecule: CSc1ccccc1NC(=O)COC(=O)CCC(=O)c1ccc(F)cc1
solubility kinetic: > 56.3 µg/mL

Molecule: COC(=O)C1CCN(Cc2nnc(-c3ccccc3)o2)CC1
solubility kinetic: > 45.2 µg/mL

Consider CCc1ccc(N(C(C)=O)c2nc(CCl)cs2)cc1 . Its measured solubility kinetic is > 44.2 µg/mL

get_value(item= COc1ccccc1C1NC(=O)NC(C)=C1C(=O)OC1CCC(C)CC1 (stereo not given) , readout=solubility kinetic) returns < 0.4 µg/mL

According to the records, this molecule CC(=O)c1ccc(NC(=O)C2CC(=O)N(C(C)C)C2)cc1 (stereo not given) displays solubility kinetic of > 43.3 µg/mL

The value of solubility kinetic measured for the molecule CNc1ccc(Cl)nn1 turned out to be > 21.5 µg/mL

For record COc1ccc(NC(=O)c2cc(=O)c3ccccc3o2)cc1Cl the listed solubility kinetic is < 0.7 µg/mL

molecule CCOc1ccc(NC(=O)N2CC(C)OC(C)C2)cc1 (stereo not given) , solubility kinetic observed: > 41.8 µg/mL

Form field solubility kinetic, entry COCCNc1c2c(nc3ccccc13)CCC2.Cl : > 41.8 µg/mL
